- MEASURED_ON: GDP-bound KRAS wild-type protein (Homo sapiens)
- Sequence (P01116 whole entry): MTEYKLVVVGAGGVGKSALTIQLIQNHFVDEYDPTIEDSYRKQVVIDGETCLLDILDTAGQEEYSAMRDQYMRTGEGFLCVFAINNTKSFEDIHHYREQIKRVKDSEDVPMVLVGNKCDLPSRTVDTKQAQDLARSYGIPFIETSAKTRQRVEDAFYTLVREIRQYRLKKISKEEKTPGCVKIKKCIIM
- ASSAY_NAME: Binding to KRAS by surface plasmon resonance (SPR), Single Cycle Kinetics
- EXPERIMENTAL_PARAMETERS: SPR Single Cycle Kinetics, GDP-bound KRAS wild-type protein, 1:1 binding model; read-out: KRAS KD
*1 amine or outer side, *2 acyl side, *3 side chain or, on linkers, in order; H or OH if unused. Where a SMILES comes first, the peptide text is derived from it. Bridges are numbered along the chain shown (N, C = ends). [ ]: non-standard residue; d: D form. The star is where a group is joined. hPhe(3-Cl-4-CF3) = N[C@@H](CCc1ccc(C(F)(F)F)c(Cl)c1)C(=O)O; X45 = O=C([C@H](Cc1ccc(C(F)(F)F)cc1)N(CCCF)[*:1])[*:2]; NMeGly(cPent) = CN[C@H](C(=O)O)C1CCCC1; NMeD = CN[C@@H](CC(=O)O)C(=O)O; NMeL = CN[C@@H](CC(C)C)C(=O)O; Morpholide = C1CN(*)CCO1; Ac5c = NC1(C(=O)O)CCCC1; Sar = CNCC(=O)O
ENDPOINT: Kd (nM)

molecule="CCO[C@@H]1C[C@H]2C(=O)NC3(CCC3)C(=O)N(C)[C@@H](C3CCCC3)C(=O)N(CCc3ccccc3)[C@H](C(=O)N(C)C)CC(=O)N(C)[C@@H](CC)C(=O)N[C@@H]([C@@H](C)CC)C(=O)N(C)CC(=O)N(C)[C@H]3CCCCCN(C3=O)[C@@H](Cc3ccc(C(F)(F)F)cc3)C(=O)N(C)CC(=O)N[C@@H](CCc3cc(F)c(C(F)(F)F)c(F)c3)C(=O)N2C1 [PP0637]" numeric_readout=23
molecule="CC[C@H](C)[C@@H]1NC(=O)[C@H](CC(C)C)N(C)C(=O)C[C@@H](C(=O)N2CCOCC2)N(C)C(=O)[C@H](C2CCCC2)N(C)C(=O)C2(CCCC2)NC(=O)[C@@H]2CCCN2C(=O)[C@H](CCc2cc(F)c(C(F)(F)F)c(F)c2)NC(=O)CN(C)C(=O)[C@H](Cc2ccc(C(F)(F)F)cc2)N2CCCCC[C@@H](C2=O)N(C)C(=O)CN(C)C1=O [PP0490]" numeric_readout=2.4
molecule="CC[C@H](C)[C@@H]1NC(=O)[C@H](CC(C)C)N(C)C(=O)C[C@@H](C(=O)N2CCOCC2)N(C)C(=O)[C@H](C2CCCC2)N(C)C(=O)C2(CCCC2)NC(=O)[C@@H]2CCCN2C(=O)[C@H](CCc2ccc(C(F)(F)F)c(Cl)c2)NC(=O)CN(C)C(=O)[C@H](Cc2ccc(C(F)(F)F)cc2)N(CCCF)C(=O)CN(C)C(=O)CN(C)C1=O [PP0524] ([NMeL]I[Sar][Sar][X45][Sar][hPhe(3-Cl-4-CF3)]P[Ac5c][NMeGly(cPent)][NMeD]-Morpholide; lactam N-11)" numeric_readout=0.11
